Consider the following molecules and their measured GI50 readings.
Test system: NCI-H23 lung
Assay: NCI tumour cell line growth inhibition, 48 h
endpoint_name: GI50

1) COc1cc(OC)c2sc(-c3ccc(-n4cncc4-c4ccc(OC)c(OC)c4)cc3)nc2c1 ... > 100 µM
2) O=C(NN1C(=O)CSC1c1cccc(Cl)c1)C(O)c1ccccc1 (centres undefined) ... 56.3 µM
3) COc1ccc(-c2cnnn2-c2nonc2-n2cccc2)cc1OC ... 4.09 µM
4) CC(=O)c1ccc2c(c1)N(CCCN1CCN(CCO)CC1)c1ccccc1S2 ... 5.68 µM
5) CCCC1(CN2c3ccccc3Sc3ccc(Cl)cc32)CCN(CC)C1 (centres undefined) ... 1.75 µM
6) C=C1C(=O)O[C@H]2[C@H]1CC/C(COC(=O)N[C@H]1C[C@H](O[C@H]3C[C@](O)(C(=O)CO)Cc4c(O)c5c(c(O)c43)C(=O)c3c(OC)cccc3C5=O)O[C@@H](C)[C@H]1O)=C\CC[C@@]1(C)O[C@@H]21 ... 8.36 µM
7) Cc1cc(N/N=C/c2nc(-c3ccc(Cl)cc3)oc2C)c2cc(Br)ccc2n1 ... 6 µM
8) O=C(c1ccc2ccccc2c1)c1nc2cc(F)ccc2[n+]([O-])c1C(F)(F)F ... 13 µM
9) N=c1ccc2nc3ccc(N)cc3sc-2c1 ... 2.77 µM

---

# log10(TGI) annotations
System: A498 renal
Experiment: NCI tumour cell line growth inhibition, 48 h
endpoint_name: log10(TGI) (log10 of the value in µM)

1) CCCCCCCCCc1ccc(OCCOCCOCCOCCOCCOCCOCCOCCOCCO)cc1 ... 0.58
2) COc1cccc(CNc2ncnc3c2ncn3C2OC(CO)C(O)C2O)c1O (centres undefined) ... 0.34
3) CCOC(=O)c1ccc(NC(=O)NC2=NCCS2)cc1 ... 0.35
4) C=C1C(=O)O[C@H]2[C@H]1CC/C(Cn1cc(-c3ccc(N)cc3)nn1)=C\CC[C@@]1(C)O[C@@H]21 ... 1.42
5) CSc1ncnc2c1ncn2CC(=O)C1CCC2C3CCC4=CC(=O)CCC4(C)C3CCC12C (centres undefined) ... 1.58

---

In this section we review reported TGI values for a set of compounds.
Tested on: A549 NSCLC
Assay: NCI tumour cell line growth inhibition, 48 h
endpoint_name: TGI (µM)

1) C/C(=C(/c1ccccc1)c1ccc(OCC(O)CNCCN2CCOCC2)cc1)c1ccccc1 (stereo not given) ... 15.6
2) CCOC(=O)C(=CNc1ccc(N(C2=NCC(C)S2)c2ccc(F)c(Cl)c2)cc1)C(=O)OCC (stereo not given) ... 86.1
3) CC(NC(=O)Cc1ccc(C(F)(F)P(=O)(OCc2ccc([N+](=O)[O-])o2)N(C)CCCCCl)cc1)c1ccc(OCC2CCCCC2)c(C(N)=O)c1 (stereo not given) ... 58.7
4) Clc1ccccc1CN1COc2c(ccc3cccnc23)C1 ... 14.2
5) CCN1[C@@H](C(=O)NC23CCC(C(=O)O)(CC2)CC3)[C@H](c2cccc(Cl)c2F)[C@]2(C(=O)Nc3cc(Cl)ccc32)C12CCCCC2 ... 7.03
6) Cc1ccc(-c2c(-c3ccccc3)[nH]c(C)c2C(=O)ONC(=O)c2ccccc2)cc1 ... 7.65
7) ClCc1cccc(Cn2cnc3c(Cl)nc(Cl)nc32)c1 ... 9.89
8) Clc1ccc2c(NCCCCN3OC3c3ccccc3)ccnc2c1 (stereo not given) ... 19.2
